The measured values listed here are drawn from PubChem BioAssay (NCI).

- Tested on: M14 melanoma
- test.method.notes: NCI-60 one-dose screen, 48 h
- cond: 10 µM unless noted
About 83,000 compounds went through this panel and 20% of them were active in at least one assay; those are over-represented in the sample as a whole. Active and inactive are the calls of the source. The calls were made as follows: active = growth percent below 10; inactive = the rest.
Outcome codes: t for active, f for inactive

>>> assigned_class("O=c1oc2ccccc2cc1-c1csc(N=Nc2c(O)[nH]c3ccc(Cl)cc23)n1")
"f"
>>> assigned_class("COc1ccccc1CNCCCCCCCCCCCCN1C(=O)c2ccc3c4c(ccc(c24)C1=O)C(=O)N(CCCCCCCCCCCCNCc1ccccc1OC)C3=O")
"f"
>>> assigned_class("COc1cc(Cn2cc(F)c(=O)[nH]c2=O)cc(OC)c1")
"f"
>>> assigned_class("Cc1nc2cc(Nc3nc(Nc4ccc(F)cc4)nc(N4CCCC4)n3)ccc2n1Cc1ccccc1")
"t"
>>> assigned_class("O=C1C=CC(=O)N1CCCCCCCCCCN1C(=O)C=CC1=O")
"f"
>>> assigned_class("CCCCCn1c(=N)n(CC(O)COc2cccc(C)c2)c2ccccc21 (stereo unspecified)")
"f"
>>> assigned_class("O=C(Nc1nc2ccccc2[nH]1)C(=O)Nc1nc2ccccc2[nH]1")
"f"
>>> assigned_class("CCSc1nnc2c3cc(Br)ccc3n(C)c2n1")
"f"
>>> assigned_class("CCCCNNC(=O)c1ccc(Br)cc1")
"f"
>>> assigned_class("COc1ccc(/C=N/NC(=O)c2cnn(CC(O)Cc3ccccc3)c2N)cc1OC1CCCC1 (stereo unspecified)")
"f"
>>> assigned_class("Cc1ccc(S(=O)(=O)N2CCc3ccc(O)c4c3C2Cc2ccc3c(c2-4)OCO3)cc1 (stereo unspecified)")
"t"
